The measurements presented in this section are drawn from ChEMBL document CHEMBL6120946.

Assay: Clearance in male C57 mouse at 1 mg/kg, iv measured upto 24 hrs
Type: ADME, organism-based
Conditions: in vivo
Recorded clearance, one value per entry.
quantity measured: clearance (L/h/kg)

>>> numeric_value("CC(=O)OC[C@H]1O[C@@H](OC2=C(C)OC(=C(C)C)C2=O)[C@H](OC(C)=O)[C@@H](OC(C)=O)[C@@H]1OC(C)=O")
23.8
>>> numeric_value("CC(C)=C1OC(C)=C(O[C@@H]2O[C@H](CO)[C@@H](O)[C@H](O)[C@H]2O)C1=O")
1.71

---

Experiment: Apparent volume of distribution in male C57 mouse at 1 mg/kg, iv measured upto 24 hrs
Type: ADME, organism-based
Settings: in vivo, read-out: Vz
Recorded Vd, one value per entry.
quantity measured: Vd (L/kg)

>>> numeric_value("CC(C)=C1OC(C)=C(O[C@@H]2O[C@H](CO)[C@@H](O)[C@H](O)[C@H]2O)C1=O")
1.09
>>> numeric_value("CC(=O)OC[C@H]1O[C@@H](OC2=C(C)OC(=C(C)C)C2=O)[C@H](OC(C)=O)[C@@H](OC(C)=O)[C@@H]1OC(C)=O")
9.25
